- testSystem: T1, recombinant human IL-23 (hrIL-23), produced at Centocor (human, UniProt P29460 23-328)
- T1 construct: p19-p40 heterodimer; also called rhIL-23; huIL-23
- T1 sequence 1: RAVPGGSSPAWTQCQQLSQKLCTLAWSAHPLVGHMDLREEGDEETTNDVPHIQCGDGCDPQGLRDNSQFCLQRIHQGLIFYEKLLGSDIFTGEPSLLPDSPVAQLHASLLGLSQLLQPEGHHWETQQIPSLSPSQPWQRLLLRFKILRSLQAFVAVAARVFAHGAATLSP
- T1 sequence 2: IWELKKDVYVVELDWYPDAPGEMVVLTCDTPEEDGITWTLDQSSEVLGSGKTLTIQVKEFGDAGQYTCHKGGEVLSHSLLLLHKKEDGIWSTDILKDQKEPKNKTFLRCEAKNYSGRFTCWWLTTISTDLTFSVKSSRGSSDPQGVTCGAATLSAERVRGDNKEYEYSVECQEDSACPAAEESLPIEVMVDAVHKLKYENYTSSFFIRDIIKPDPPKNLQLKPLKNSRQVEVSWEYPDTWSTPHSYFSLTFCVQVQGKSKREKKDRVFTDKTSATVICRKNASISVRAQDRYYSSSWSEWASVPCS
- testSummary: IL-23/IL-23R competition assay
Kindly state pIC50 for each of the entries shown.
Would you please state pIC50, meaning minus log10 of the concentration in mol/L, as a bare number?

Task: Look up pIC50 for this binder: MOR04649 Fab (Fab, V domains shown, Fab) VH: QVQLVQSGAEVKKPGESLKISCKGSGYSFSNYWIGWVRQMPGKGLEWMGIIDPSNSYTNYSPSFQGQVTISADKSISTAYLQWSSLKASDTAMYYCARWYYKPFDVWGQGTLVTVSS VL: DIVLTQPPSVSGAPGQRVTISCTGSSSNIGSGYDVHWYQQLPGTAPKLLIYGNSKRPSGVPDRFSGSKSGTSASLAITGLQSEDEADYYCSSWTPSSVVFGGGTKLTVL
Output: 8.92

Task: Look up pIC50 for this binder: MOR05044 Fab (Fab, V domains shown, Fab) VH: QVQLVQSGAEVKKPGESLKISCKGSGYSFSNYWIGWVRQMPGKGLEWMGIISPSGSTTWYSPSFQGQVTISADKSISTAYLQWSSLKASDTAMYYCARWYYKPFDVWGQGTLVTVSS VL: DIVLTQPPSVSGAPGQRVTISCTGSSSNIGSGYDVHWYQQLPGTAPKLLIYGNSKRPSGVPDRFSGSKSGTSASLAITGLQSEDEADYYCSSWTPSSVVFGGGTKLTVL
Output: 10.30

Task: Look up pIC50 for this binder: MOR05058 Fab (Fab, V domains shown, Fab) VH: QVQLVQSGAEVKKPGESLKISCKGSGYSFSNYWIGWVRQMPGKGLEWMGIIDPSNSYTNYSPSFQGQVTISADKSISTAYLQWSSLKASDTAMYYCARWYYKPFDVWGQGTLVTVSS VL: DIVLTQPPSVSGAPGQRVTISCTGSSSNIGSGYDVHWYQQLPGTAPKLLIYGNSKRPSGVPDRFSGSKSGTSASLAITGLQSEDEADYYCSSWTDTPNMIVFGGGTKLTVL
Output: 9.96

Task: Look up pIC50 for this binder: MOR05046 Fab (Fab, V domains shown, Fab) VH: QVQLVQSGAEVKKPGESLKISCKGSGYSFSNYWIGWVRQMPGKGLEWMGIIDPVSSWTKYSPSFQGQVTISADKSISTAYLQWSSLKASDTAMYYCARWYYKPFDVWGQGTLVTVSS VL: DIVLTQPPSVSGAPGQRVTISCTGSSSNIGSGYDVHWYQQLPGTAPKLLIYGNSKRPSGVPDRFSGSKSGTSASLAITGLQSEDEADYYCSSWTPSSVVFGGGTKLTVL
Output: 10.10

Task: Look up pIC50 for this binder: MOR05043 Fab (Fab, V domains shown, Fab) VH: QVQLVQSGAEVKKPGESLKISCKGSGYSFSNYWIGWVRQMPGKGLEWMGFISPDGSHTWYSPSFQGQVTISADKSISTAYLQWSSLKASDTAMYYCARWYYKPFDVWGQGTLVTVSS VL: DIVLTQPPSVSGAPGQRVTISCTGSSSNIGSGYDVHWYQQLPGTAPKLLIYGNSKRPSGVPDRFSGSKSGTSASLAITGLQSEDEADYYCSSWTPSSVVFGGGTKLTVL
Output: 10.30

Task: Look up pIC50 for this binder: MOR05045 Fab (Fab, V domains shown, Fab) VH: QVQLVQSGAEVKKPGESLKISCKGSGYSFSNYWIGWVRQMPGKGLEWMGIISPTGSATWYSPSFQGQVTISADKSISTAYLQWSSLKASDTAMYYCARWYYKPFDVWGQGTLVTVSS VL: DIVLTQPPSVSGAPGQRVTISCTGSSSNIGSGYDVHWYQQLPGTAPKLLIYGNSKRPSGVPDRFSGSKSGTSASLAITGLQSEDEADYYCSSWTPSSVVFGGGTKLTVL
Output: 10.30

Task: Look up pIC50 for this binder: MOR05059 Fab (Fab, V domains shown, Fab) VH: QVQLVQSGAEVKKPGESLKISCKGSGYSFSNYWIGWVRQMPGKGLEWMGIIDPSNSYTNYSPSFQGQVTISADKSISTAYLQWSSLKASDTAMYYCARWYYKPFDVWGQGTLVTVSS VL: DIVLTQPPSVSGAPGQRVTISCTGSSSNIGSGYDVHWYQQLPGTAPKLLIYGNSKRPSGVPDRFSGSKSGTSASLAITGLQSEDEADYYCASWTDGLSLVVFGGGTKLTVL
Output: 9.16

Task: Look up pIC50 for this binder: MOR05042 Fab (Fab, V domains shown, Fab) VH: QVQLVQSGAEVKKPGESLKISCKGSGYSFSNYWIGWVRQMPGKGLEWMGIISPTGSSTWYSPSFQGQVTISADKSISTAYLQWSSLKASDTAMYYCARWYYKPFDVWGQGTLVTVSS VL: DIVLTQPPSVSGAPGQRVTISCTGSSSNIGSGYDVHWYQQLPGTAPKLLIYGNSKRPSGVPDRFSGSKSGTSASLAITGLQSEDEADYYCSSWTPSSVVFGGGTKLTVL
Output: 10.22

Task: Look up pIC50 for this binder: MOR05041 Fab (Fab, V domains shown, Fab) VH: QVQLVQSGAEVKKPGESLKISCKGSGYSFSNYWIGWVRQMPGKGLEWMGIISPTGSVTWYSPSFQGQVTISADKSISTAYLQWSSLKASDTAMYYCARWYYKPFDVWGQGTLVTVSS VL: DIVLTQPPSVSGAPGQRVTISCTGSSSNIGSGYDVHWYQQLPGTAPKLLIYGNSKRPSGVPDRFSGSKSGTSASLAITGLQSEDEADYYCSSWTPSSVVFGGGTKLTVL
Output: 10.15
